molecular target: T1, HER2 expressed on the surface of cells (human, UniProt P04626 23-1255); test: flow cytometry on SKBR3 cells, n=1
T1 construct: whole, on cells; also called ErbB2
propertyName: Bmax (MFI)
Answers are plain numbers, in MFI.

Completed entries (count: 2):
1. Variant 14021 (antibody, name in Kabat numbering, V domains shown, also called v14021) VH: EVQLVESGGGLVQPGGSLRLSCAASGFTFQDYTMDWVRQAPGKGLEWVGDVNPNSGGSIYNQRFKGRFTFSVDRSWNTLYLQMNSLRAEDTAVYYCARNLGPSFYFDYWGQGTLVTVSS VL: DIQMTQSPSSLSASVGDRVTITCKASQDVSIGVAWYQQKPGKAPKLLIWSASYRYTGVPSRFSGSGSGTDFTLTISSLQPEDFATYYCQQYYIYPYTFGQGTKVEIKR
31000
2. Variant 14018 (antibody, name in Kabat numbering, V domains shown, also called v14018) VH: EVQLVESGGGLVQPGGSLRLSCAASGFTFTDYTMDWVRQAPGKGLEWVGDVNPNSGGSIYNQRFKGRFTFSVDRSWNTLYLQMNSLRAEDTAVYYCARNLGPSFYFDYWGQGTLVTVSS VL: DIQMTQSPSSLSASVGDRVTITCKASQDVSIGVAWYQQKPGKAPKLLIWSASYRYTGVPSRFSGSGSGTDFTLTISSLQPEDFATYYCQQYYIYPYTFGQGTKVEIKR
32000

Moving on to another binder below.
(Q) Tell me the measured Bmax of Variant 14023 (antibody, name in Kabat numbering, V domains shown, also called v14023) VH: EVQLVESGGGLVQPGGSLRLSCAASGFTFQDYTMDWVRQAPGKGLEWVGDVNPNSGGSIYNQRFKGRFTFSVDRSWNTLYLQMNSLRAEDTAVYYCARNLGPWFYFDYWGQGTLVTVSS VL: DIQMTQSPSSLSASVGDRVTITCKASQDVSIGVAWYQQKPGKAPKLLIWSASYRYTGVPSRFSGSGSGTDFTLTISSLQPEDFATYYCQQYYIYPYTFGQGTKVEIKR , please.
(A) 29000
